# System under test: Vif/EloB/C/CBFβ quaternary complex (full-length HIV-1 HXB2 Vif(1-192) / ElonginB 1-118 / ElonginC 17 (HIV-1 HXB2; human), P69720
# Test: fluorescence anisotropy, complex titrated into 25 nM 5-FAM peptide; Sd ± 7.0
Experimental endpoint: pKd
The meaning of pKd here: minus log10 of the concentration in molar units.

// lookup pKd for LRQESVTKQQW (modifications not checked) [Cul5(30-40) peptide]
4.80
